B1: HDAC6 (parent)
chain: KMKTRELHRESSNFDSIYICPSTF

Variants of: B1
TEST NAME: protein stability index of a GFP-peptide fusion (GPS, HEK-293T) (PSI 1-6); higher = more stable;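 further: lentivirally expressed fusions sorted by FACS into six bins by GFP to DsRed ratio, PSI derived from sequencing read proportions per bin multiplied by bin number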
EXPERIMENTAL CONTEXT: c terminus: a fixed tail appended
READOUT TYPE: protein stability index
Give bare numbers.

Can you give me protein stability index for all of these, one by one?
1. E10V
2. Y18W
3. E6N
4. Y18D
5. K1Q

Solution:
1. 2.04
2. 2.38
3. 2.32
4. 3.8
5. 2.23
